pIC50: −log10 of the molar value.
Literature roundup of ROCK2 (Homo sapiens) data, read-out pIC50.
measured parameter: pIC50

* COc1cc(N2CCC3(CCN(C(=O)c4ccc(N5CCN(Cc6ccc(N(C)C)cc6)CC5)cc4)CC3)C2=O)ccc1-c1cn[nH]c1 | 10.00
* O=C(NC(CO)c1cc(F)ccc1F)c1cccc(-c2ccc3[nH]ncc3c2)c1 (stereo not drawn) | 7.59
* Cc1cc(C(=O)N[C@H](C)c2ccc(F)cc2)ccc1-c1cn[nH]c1 | 7.72
* [H][C@]1(Oc2ncccc2C(N)=O)C[C@]2(C[C@@H](Nc3nccc(N4CCC(C(F)(F)F)CC4)n3)C2)C1 (stereo partly drawn) | 6.78
* Cn1c(C(=O)N2CC(F)(F)C2)cc2ccc(-c3nc(Nc4ccc(-c5cn[nH]c5)cc4)c4c(n3)OCCO4)cc21 | 7.82
* Cc1c(C(=O)N[C@H]2C[C@]3(C2)C[C@H](Oc2nn(-c4ccccc4)cc2C(N)=O)C3)cnn1-c1ccc(C#N)cc1 (stereo partly drawn) | 6.37
* Cc1c(C(=O)N[C@H]2C[C@]3(C2)C[C@H](Oc2nn(C)cc2C(N)=O)C3)cnn1-c1ccc(C#N)cc1 (stereo partly drawn) | 6.44
* COc1cc(N2CCC3(CCN(C(=O)c4cc(=O)n5nnnc5[nH]4)CC3)C2=O)ccc1-c1cn[nH]c1 | 6.53
* O=C(OC1CC(F)(F)C1)N1Cc2ccc(-c3ncc(F)c(Nc4ccc5c(=O)[nH]ccc5c4)n3)cc2C1 | 7.96
* Cn1nccc1-c1ccn2nc(NC(=O)Cc3ccc(Oc4ncccc4C(N)=O)c(F)c3)nc2c1 | 7.89
